// data source = the RNAGym collection of RNA variant scans (doi:10.1073/pnas.2313332121)

B1: TPR t1 (parent)
chain: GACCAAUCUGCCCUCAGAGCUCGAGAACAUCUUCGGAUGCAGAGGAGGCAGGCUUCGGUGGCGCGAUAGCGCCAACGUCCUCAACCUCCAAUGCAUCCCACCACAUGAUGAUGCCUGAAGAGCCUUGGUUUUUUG

Variants of: B1
EXPERIMENTAL_DETAILS: polymerase ribozyme fitness, log enrichment relative to wild type (log ratio); higher = more active; in vitro selection for triplet polymerase activity
Consider the following variants; for each one, report its polymerase ribozyme fitness (log ratio).
Numbers only.

>>> recorded_number("U112A G135A")
2.15

Field: polymerase ribozyme fitness (log ratio). Fill in for each record below.
1. A84U C123A
2. G19A U38C G63U C114A A121G
3. A43U G60C C82G

Completion:
1. -0.143
2. -4.24
3. -4.23

Field: polymerase ribozyme fitness (log ratio). Fill in for each record below.
1. C11U C85G U109G C123A
2. A105C C114A
3. U30A G48C G57A C124G
4. A2U C56A G120C
5. G42U G71A U92A
6. C8U C12A G35U G45C C53G C104U
7. C34U C64U
8. G60U A90U

Completion:
[-5.74, -3.98, -4.73, -2.63, -3.78, -6.79, -3.93, -1.1]

Field: polymerase ribozyme fitness (log ratio). Fill in for each record below.
1. U7C C11G C82U
2. G39C G110A
3. U14A A46C C70A U112A A119G G122C
4. C8G G45A G117A C123A U130G
5. C11G A27C G48A C94G
6. A6U C73G
7. C4U G47A G107U C124U

Completion:
1: 0.131; 2: -1.82; 3: -2.7; 4: 0.313; 5: -4.21; 6: -1.46; 7: -3.15
